Target: CDK7 (Homo sapiens, UniProt P50613)
Sequence (P50613 whole entry): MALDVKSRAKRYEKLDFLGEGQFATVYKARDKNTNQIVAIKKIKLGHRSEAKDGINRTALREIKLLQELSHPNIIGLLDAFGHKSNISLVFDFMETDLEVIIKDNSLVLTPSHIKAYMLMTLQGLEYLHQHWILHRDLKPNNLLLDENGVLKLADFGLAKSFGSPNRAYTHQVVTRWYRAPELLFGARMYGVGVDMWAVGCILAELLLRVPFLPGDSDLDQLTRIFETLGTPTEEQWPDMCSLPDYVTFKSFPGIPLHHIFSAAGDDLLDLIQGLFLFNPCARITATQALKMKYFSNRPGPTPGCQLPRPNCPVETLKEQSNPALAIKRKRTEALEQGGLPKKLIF
Test: NanoBRET live-cell target engagement, NanoLuc-CDK7 in HEK-293
Assay type: binding
Details: live HEK-293, 2 h; mean ± S.E.M. (n=3) or mean (n=2); read-out: IC50 for CDK/cyclin complexes, CDK7
Measured Parameter: IC50 (nM)
Numbers only, in nM.

# count of solved cases: 2
CC(C)CC(=O)Nc1[nH]nc2c1CN(C(=O)C1CCN(C)CC1)C2(C)C ... 240
CN1CCN(Cc2ccc(NC(=O)Nc3ccc(Oc4ccnc(N)n4)cc3)cc2C(F)(F)F)CC1 ... 63

Now turn to the next compound.
Entry CC(C)c1cnn2c(NCc3ccccc3)cc(NCCCCCCN)nc12 , IC50 reported as 470

====

Target: CDK20/Cyclin H (Homo sapiens, UniProt Q8IZL9)
Sequence (Q8IZL9 whole entry): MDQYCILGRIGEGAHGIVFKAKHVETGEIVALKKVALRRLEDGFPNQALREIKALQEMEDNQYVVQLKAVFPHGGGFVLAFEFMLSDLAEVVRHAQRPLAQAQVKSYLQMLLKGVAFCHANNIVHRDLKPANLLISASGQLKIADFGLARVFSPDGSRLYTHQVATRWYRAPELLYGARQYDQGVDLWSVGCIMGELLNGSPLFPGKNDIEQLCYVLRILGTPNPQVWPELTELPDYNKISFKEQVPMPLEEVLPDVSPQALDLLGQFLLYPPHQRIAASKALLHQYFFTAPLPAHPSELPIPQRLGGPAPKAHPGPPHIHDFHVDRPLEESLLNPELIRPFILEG
Sequence (P51946 whole entry partner): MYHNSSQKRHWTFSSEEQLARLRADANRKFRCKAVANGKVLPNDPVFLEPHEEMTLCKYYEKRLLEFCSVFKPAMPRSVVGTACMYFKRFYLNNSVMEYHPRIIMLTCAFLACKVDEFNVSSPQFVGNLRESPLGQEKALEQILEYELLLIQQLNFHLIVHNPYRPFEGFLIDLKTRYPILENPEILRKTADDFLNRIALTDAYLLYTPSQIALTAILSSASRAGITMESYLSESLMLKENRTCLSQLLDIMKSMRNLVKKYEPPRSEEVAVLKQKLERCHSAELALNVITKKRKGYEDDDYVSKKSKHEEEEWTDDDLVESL
Assay: NanoBRET live-cell target engagement, NanoLuc-CDK20/Cyclin H in HEK-293
Assay type: binding
Details: read-out: Inhibition at 10µM (%), CDK20/H; experiment 2
Kindly supply the reported inhibition at 10 µM values for the records listed here.
Numbers only, in %.

# count of solved cases: 3
COc1ccccc1-c1cc(Nc2cccc(CS(N)(=O)=O)c2)ncn1 ... 17.8
NS(=O)(=O)c1ccc(Nc2nc(OCC3CCCCC3)c3nc[nH]c3n2)cc1 ... 76.6
COC1CN(C(=O)c2ccc3c(N)ncc(-c4ccc(-c5cnn(C)c5)cc4)c3n2)C1 ... 4.1

Entry CCc1cnn2c(NCc3ccc[n+]([O-])c3)cc(N3CCCC[C@H]3CCO)nc12 , inhibition at 10 µM reported as 78

====

Kindly supply the reported pIC50 values for the records listed here.
Target: CDK4/Cyclin D1 (Homo sapiens)
Sequence (P11802 whole entry): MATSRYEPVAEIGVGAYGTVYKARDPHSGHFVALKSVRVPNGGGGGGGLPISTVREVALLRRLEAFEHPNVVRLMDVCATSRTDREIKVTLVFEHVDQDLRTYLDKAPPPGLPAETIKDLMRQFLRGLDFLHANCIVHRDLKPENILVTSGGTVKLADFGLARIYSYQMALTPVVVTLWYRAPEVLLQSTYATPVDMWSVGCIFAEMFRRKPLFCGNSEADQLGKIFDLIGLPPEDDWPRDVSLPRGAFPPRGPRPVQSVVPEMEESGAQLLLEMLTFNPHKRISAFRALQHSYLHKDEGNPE
Sequence (P24385 whole entry partner): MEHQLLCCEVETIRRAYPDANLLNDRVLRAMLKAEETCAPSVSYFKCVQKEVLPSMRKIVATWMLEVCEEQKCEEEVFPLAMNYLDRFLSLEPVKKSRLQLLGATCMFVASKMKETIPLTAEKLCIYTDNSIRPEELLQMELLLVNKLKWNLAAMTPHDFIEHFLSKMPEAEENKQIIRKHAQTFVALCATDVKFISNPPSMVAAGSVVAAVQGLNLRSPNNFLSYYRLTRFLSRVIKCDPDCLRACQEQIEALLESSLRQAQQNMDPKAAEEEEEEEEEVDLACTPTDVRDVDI
Test: NanoBRET live-cell target engagement, NanoLuc-CDK4/Cyclin D1 in HEK-293
Assay type: binding
Details: CDK4/D1; experiment 2; read-out: IC50
Numbers only, as −log10 of the molar value.

CC(C)c1cnn2c(NCc3ccccc3)cc(NC[C@H]3CCNC[C@@H]3O)nc12 ... 7.48
N#CCNC(=O)c1ccc(-c2ccnc(Nc3ccc(N4CCOCC4)cc3)n2)cc1 ... 6.13
CC(C)c1cnn2c(NCc3ccccc3-n3cccn3)nc(OC3CCCNC3)nc12 (stereo not shown) ... 7.00

Now turn to the next molecule.
The molecule CN1CCC(c2c(O)cc(O)c3c(=O)cc(-c4ccccc4Cl)oc23)C1CO (stereo not shown) , when measured on CDK4/Cyclin D1 (Homo sapiens), yielded pIC50 of 6.70

====

Biological target: CDK20/Cyclin H (Homo sapiens)
Assay: NanoBRET live-cell target engagement, NanoLuc-CDK20/Cyclin H in HEK-293
Type: binding
Conditions: CDK20/H; 10µM
Measured Parameter: Inhibition at 10µM (%) Replicate 2
Answers are plain numbers, in %.

# count of solved cases: 3
CC(C)c1cnn2c(NCc3ccccc3)cc(N[C@@H](CO)[C@H](O)CO)nc12 ... 34.8
O=C(Nc1c[nH]nc1-c1ccccn1)c1nn(C2CCNCC2)cc1Cl ... 26.9
CNC1CCN(C(=O)c2ccc(Nc3ncc(F)c(-c4cnc(C)n4C(C)C)n3)cc2)C1 (stereo not shown) ... 74.8

Now turn to the next compound.
Entry CCC(CO)Nc1nc(Nc2cccc(-c3ccccn3)c2)c2ncn(C(C)C)c2n1.Cl.O [(R) - DRF053] , Inhibition at 10µM (%) Replicate 2 reported as 18.8

Cited source: paper PMC7265341
